assay: In vivo biodistribution by SPECT/CT imaging; set-up: species or system C57BL/6 mice; conditions: female, C57BL/6, mouse, tumor, total radioactivity; 48 h p.i.; 30 MBq (1 nmol) iv; SPECT/CT; mean ± SD, n = 6; SD; read-out: Tumor %ID/g
Numbered stars: 1 amine (or outer) side, 2 acyl side, 3 side chain; on linkers, the order of the positions; unused ones are H or OH. Bridge positions count the residues as written; N and C are the ends. Peptide text beside a SMILES is read from it. * marks the point of attachment. X1 = O=C(O)CN1CCN(CC(=O)O)CCN(CC(=O)N2CCN(Cc3cc(C[*:1])cc(C[*:2])c3)CC2)CCN(CC(=O)O)CC1; Hexanoyl = CCCCCC(=O)*
quantity measured: tissue uptake at 48 h (%ID/g)
Quick note: give the figure in %ID/g, leave out the unit.

Input line: Find the recorded tissue uptake at 48 h belonging to CCCCCC(=O)N[C@H]1CSCc2cc(cc(CN3CCN(C(=O)CN4CCN(CC(=O)O)CCN(CC(=O)O)CCN(CC(=O)O)CC4)CC3)c2)CSC[C@@H](C(=O)N[C@@H](CC(=O)O)C(N)=O)NC(=O)[C@H](Cc2ccccc2)NC(=O)[C@H](CCC(N)=O)NC(=O)[C@H]([C@@H](C)O)NC(=O)[C@@H]2CCCN2C(=O)[C@@H]2CCCN2C1=O [^177Lu-FAP-2287, metal not drawn] (Hexanoyl-CPPTQFCD-NH2; linker 1-7 via X1; N-terminus and C-terminus assumed) and report it.
Output line: 1.6
